# Study System: Hypoxia inducible factors; HIF-1-alpha, HIF-2-alpha (Homo sapiens, UniProt Q16665+Q99814)
# Procedure Text: Inhibition of hypoxia-induced HIF1 transcriptional activity in human HeLa cells measured after 12 hrs by luciferase reporter gene assay
# Type: cell-based
Endpoint Name: IC50

Cc1ccc(-c2nc(-c3ccc(CO)o3)n3ccccc23)cc1
39 µM
COc1ccc(-c2nc(-c3ccc(CO)o3)n3ccccc23)cc1
61 µM
OCc1ccc(-c2nc(Cc3ccccc3)c3ccccn23)o1
56 µM
OCc1ccc(-c2nc(-c3ccccc3)c3ccccn23)s1
3.7 µM
N#Cc1ccc(-c2nc(-c3ccc(CO)o3)n3ccccc23)cc1
7.4 µM

Consider the molecule shown here: OCc1ccc(-c2nc(-c3ccccc3)c3ccccn23)o1 What is its recorded IC50?
70 µM

Quick one: COc1ccccc1-c1nc(-c2ccc(CO)o2)n2ccccc12
75 µM

Quick one: OCc1ccc(-c2nc(-c3ccc(C(F)(F)F)cc3)c3ccccn23)o1
17 µM

Quick one: OCc1ccc(-c2nc(-c3cc(C(F)(F)F)cc(C(F)(F)F)c3)c3ccccn23)o1
25 µM

Quick one: OCc1ccc(-c2nc(-c3ccccc3CO)c3ccccn23)o1
6.5 µM

Quick one: OCc1ccc(-c2nc(-c3ccccc3CO)c3ccccn23)s1
9.4 µM

Quick one: OCc1ccc(-c2nc(-c3ccncc3)c3ccccn23)s1
9.1 µM
